Provide the recorded pKi for the entries that follow.
- Study target: UniProt:P9WKE1
- Sequence (P9WKE1 whole entry): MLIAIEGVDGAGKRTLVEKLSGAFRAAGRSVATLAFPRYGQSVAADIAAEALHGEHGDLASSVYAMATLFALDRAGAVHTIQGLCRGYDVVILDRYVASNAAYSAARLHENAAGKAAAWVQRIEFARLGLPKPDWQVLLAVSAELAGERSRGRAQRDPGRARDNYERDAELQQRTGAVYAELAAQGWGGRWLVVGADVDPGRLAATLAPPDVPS
- Method summary: Compound was tested for binding affinity against Mycobacterium tuberculosis thymidine monophosphate kinase
Please express pKi as -log10 of the molar concentration.

Query :: Quickly give me recorded pKi for Cc1cn([C@H]2C[C@H](N=[N+]=[N-])[C@@H](COP(=O)(O)O)O2)c(=O)[nH]c1=O [AZIDOTHYMIDINE MONOPHOSPHATE]
Result :: 5.00

Query :: Quickly give me recorded pKi for Cc1cn([C@@H]2O[C@H](COP(=O)(O)O)[C@@H](O)[C@H]2N)c(=O)[nH]c1=O
Result :: 4.26

Query :: Quickly give me recorded pKi for Cc1cn([C@@H]2O[C@H](COP(=O)(O)O)[C@@H](O)[C@H]2Cl)c(=O)[nH]c1=O
Result :: 4.72

Query :: Quickly give me recorded pKi for Cc1cn([C@@H]2O[C@H](COP(=O)(O)O)[C@@H](O)[C@H]2F)c(=O)[nH]c1=O
Result :: 4.37

Query :: Quickly give me recorded pKi for Cc1cn([C@H]2C[C@H](N)[C@@H](COP(=O)(O)O)O2)c(=O)[nH]c1=O
Result :: 3.63

Query :: Quickly give me recorded pKi for Cc1cn([C@@H]2O[C@H](COP(=O)(O)O)[C@@H](N)[C@H]2O)c(=O)[nH]c1=O
Result :: 4.57
